- studyTarget: T1, human CLDN6, endogenously expressed on cancer cell lines (human, UniProt P56747 1-220)
- T1 construct: also called Endogenous CLDN6+; CLDN6 on ARK2, OVCA429, UMUC4 cells
- T1 sequence: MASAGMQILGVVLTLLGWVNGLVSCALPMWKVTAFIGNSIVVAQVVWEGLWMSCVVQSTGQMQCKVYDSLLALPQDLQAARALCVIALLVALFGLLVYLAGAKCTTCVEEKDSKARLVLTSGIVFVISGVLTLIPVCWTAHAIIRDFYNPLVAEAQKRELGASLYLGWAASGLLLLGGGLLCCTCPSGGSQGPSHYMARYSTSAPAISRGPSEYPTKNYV
- experimentSummary: FACS, ARK2 cells, 0.3 ug Ab
FACS signal values by entry
quantityMeasured: FACS signal

[[record]]
binder = "AB9-4 (antibody, V domains shown, Humanized; also called humanized AB 9-4) VH: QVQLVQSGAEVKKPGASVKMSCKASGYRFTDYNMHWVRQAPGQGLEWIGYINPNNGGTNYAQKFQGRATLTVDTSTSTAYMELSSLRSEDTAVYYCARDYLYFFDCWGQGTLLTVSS VL: DIQMTQSPSSLSASVGDRVTITCRASQTIGTWLAWYQQKPGKAPKLLIYAAASLADGVPSRFSGSGSGTDFTFTISSLQPEDFVTYYCQQLYSIPRTFGQGTKLEIK"
quantitymeasured = "FACS signal"
val = 1120

[[record]]
binder = "AB11-2 (antibody, V domains shown, Humanized; also called humanized AB 11-2) VH: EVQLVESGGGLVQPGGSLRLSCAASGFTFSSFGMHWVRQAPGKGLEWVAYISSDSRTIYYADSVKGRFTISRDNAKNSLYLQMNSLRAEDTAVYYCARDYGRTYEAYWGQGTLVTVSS VL: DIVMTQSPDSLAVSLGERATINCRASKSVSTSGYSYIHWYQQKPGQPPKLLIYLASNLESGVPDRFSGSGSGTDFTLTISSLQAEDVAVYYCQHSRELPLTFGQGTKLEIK"
quantitymeasured = "FACS signal"
val = 1400

[[record]]
binder = "AB3-3 (antibody, V domains shown, Humanized; also called humanized AB 3-3) VH: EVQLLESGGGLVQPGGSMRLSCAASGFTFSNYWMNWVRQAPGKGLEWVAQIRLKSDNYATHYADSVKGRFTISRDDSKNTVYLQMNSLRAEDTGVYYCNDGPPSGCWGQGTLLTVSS VL: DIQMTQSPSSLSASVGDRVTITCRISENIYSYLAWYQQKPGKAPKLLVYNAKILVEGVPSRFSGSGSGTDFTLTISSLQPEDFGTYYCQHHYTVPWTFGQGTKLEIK"
quantitymeasured = "FACS signal"
val = 1160

[[record]]
binder = "AB1-6 (antibody, V domains shown, Humanized; also called humanized AB 1-6) VH: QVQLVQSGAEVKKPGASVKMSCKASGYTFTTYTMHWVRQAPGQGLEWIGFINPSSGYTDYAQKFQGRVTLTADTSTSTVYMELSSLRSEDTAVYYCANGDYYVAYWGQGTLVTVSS VL: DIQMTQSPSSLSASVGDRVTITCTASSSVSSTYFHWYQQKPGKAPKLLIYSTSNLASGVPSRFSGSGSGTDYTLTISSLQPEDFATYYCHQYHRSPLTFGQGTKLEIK"
quantitymeasured = "FACS signal"
val = 2820

[[record]]
binder = "AB1-Chim (antibody, V domains shown, Parental antibody prior to humanization ('chim'); also called pre-humanized form of AB1) VH: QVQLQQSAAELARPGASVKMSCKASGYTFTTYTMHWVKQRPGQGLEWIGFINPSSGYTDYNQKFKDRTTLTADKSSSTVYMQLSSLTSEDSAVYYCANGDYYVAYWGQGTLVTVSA VL: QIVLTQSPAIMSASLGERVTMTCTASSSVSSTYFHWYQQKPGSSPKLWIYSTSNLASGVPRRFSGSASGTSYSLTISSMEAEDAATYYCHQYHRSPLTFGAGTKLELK"
quantitymeasured = "FACS signal"
val = 58800

